Tested on: SK-OV-3
Test: NCI tumour cell line growth inhibition, 48 h
Activity calls are given as the source filed them. No stated cut-off is given here; in the data, active = GI50 up to about 1.1 µM and inactive = higher.
assay_endpoint: GI50

O=P1(c2ccccc2)C(c2ccccc2)CCC1c1ccccc1 (stereo not given)
40.9 µM (inactive)
O=c1cc2oc3ccc4ccccc4c3cc-2c(=O)[nH]1
20.3 µM (inactive)
O=C(c1ccc2ccccc2c1)N(Cc1cccnc1)C(=S)N(Cc1cccnc1)C(=O)c1ccc2ccccc2c1
46.3 µM (inactive)

Each compound below has a recorded value; state its GI50.
1. COC(=O)c1c(C)c2c(c(C)c1C(=O)OC)-c1c(C)ccc3ccc(C)c-2c13
2. Cc1ccc(C(=O)/C=C2\Nc3ccccc3NC2=O)cc1
3. C=CCC1(C(=O)OC(C)(C)C)C(OC)=C(C(=O)OC(C)(C)C)C2C1C(C(=O)OC(C)(C)C)=C(OC)C2(CC=C)C(=O)OC(C)(C)C (stereo not given)
4. C=C(Cl)Cc1c(O)c2c(c(O)c1CC(=C)Cl)C(=O)c1ccccc1C2=O
5. CN(C)CCn1c(CO)nc2c1c(=O)n(C)c(=O)n2C

Result:
1: > 74.8 µM (inactive); 2: 2.19 µM (inactive); 3: > 100 µM (inactive); 4: > 100 µM (inactive); 5: > 100 µM (inactive)

Please supply GI50 for each of the following items, keeping them in order.
1. O=C1c2c(ccc3c2CCC3)CC1Cc1ccc2c(c1)CCC2 (stereo not given)
2. Cc1ccc(C(=O)Cc2nc3c([nH]c2=O)c(C)nn3-c2ccccc2)c(C)c1

Result:
1. 53.3 µM (inactive)
2. > 10 µM (inactive)

---

System: M14
Test: NCI tumour cell line growth inhibition, 48 h
Activity calls are given as the source filed them. Rule as the data show it: active = GI50 up to about 1.1 µM and inactive = higher.
Select the matching outcome among active, inactive

O=C1c2ccccc2/N=C(/c2cc3c(cc2Cl)Sc2nccn2S3(=O)=O)OS(=O)(=O)N1c1ccccc1
inactive
CCN(CC)CCNc1c2ccccc2nc2cccc([N+](=O)[O-])c12
active
O=C(/C=C/c1ccc(O)cc1)NCCc1ccc(O)cc1
inactive
O=C(O)c1cccc(/[As]=[As]\c2cccc(C(=O)O)c2)c1 (stereo unspecified)
inactive
C=C[C@@]1(C)CC(=O)[C@]2(O)[C@@]3(C)[C@@H](OC(C)=O)CCC(C)(C)[C@@H]3[C@H](O)[C@H](OC(C)=O)[C@@]2(C)O1
inactive

Kindly review the next compound as well.
Q: Fill in: this test's call for CC(C)(C)OC(=O)N1CC(O)O[C@H](c2ccccc2)[C@@H]1c1ccccc1 (stereo partly specified) is ___
Result: inactive

---

Test system: NCI-H226
Test: NCI tumour cell line growth inhibition, 48 h
Calls of active or inactive are those of the source. Rule as the data show it: active = GI50 up to about 1.1 µM and inactive = higher.
// allowed return values: yes (1) (active), no (0) (inactive)

COc1cc(O)c2c(=O)c(OC)c(-c3ccc(OC)c(OC)c3)oc2c1.[Zn+2]
no (0)
CC(C)(O)C1OCC(C2CCC3(C)C4=CCC5C(C)(C)C(O)CCC5(C)C4CCC23C)CC1O (centres undefined)
no (0)
CCCCCCCCCCCCOP(=O)(O)OP(=O)(O)OCC1OC(n2cc(C)c(=O)[nH]c2=O)CC1O (centres undefined)
no (0)
N=C(N)NS(=O)(=O)c1ccc(Nc2c3ccccc3nc3ccc(C(=O)Nc4ccc(S(N)(=O)=O)cc4)cc23)cc1
no (0)

Q: Field: outcome | Entry: `C=C(CS(=O)(=O)c1ccccc1)[P+](c1ccccc1)(c1ccccc1)c1ccccc1`
Result: no (0)

Q: Called result for CC(C)(O)C1CC(=O)C(C)(C2C(O)CC3(C)C4CC=C5C(CCC(O)C5(C)C)C4(C)C(=O)CC23C)O1 (centres undefined)
Result: no (0)

Q: // param item: `CN(C)CCn1c(CO)nc2c1c(=O)n(C)c(=O)n2C` ; yields the recorded call
Result: no (0)

Q: Please share the test call associated with C[C@@H]1CC(=O)[C@@]2(C)[C@](O)(CCC3O[C@]32C)[C@@]12CC(c1ccoc1)OC2=O (some centres undefined) .
Result: no (0)

Q: Dear all, I need the recorded test outcome for `Cn1c2ccccc2n2c3ccccc3c3nnc(N)c-3c12` , thank you.
Result: no (0)

Q: Short answer needed: outcome of this test for `CCN(CC)CCNc1c2ccccc2nc2cccc([N+](=O)[O-])c12` ?
Result: yes (1)

Q: Hi, do you know how `O=c1c2c3c(sc2nc2n1N=C(c1ccc(Br)cc1)CS2)CCCC3` came out in this test?
Result: no (0)

Q: Answer briefly: the call reported for `COc1cc2c(cc1OC)-c1cc3cc(OC)c(OC)cc3c(=O)n1CC2` in this assay.
Result: no (0)

Q: State the result this test recorded for `O=C(CCn1[nH]c(=O)c(Cl)c(Cl)c1=O)NO` .
Result: no (0)

Q: Test call for this compound, please: CN(C)C(=O)C(F)(F)C(c1ccc(Br)cc1)C1C(=O)N(C)C(=O)N(C)C1=O (centres undefined)
Result: no (0)

Q: Any idea what this test logged for `O=C1C(NS(=O)(=O)c2ccccc2)=C(n2ccnc2)C(=O)c2ccccc21` ?
Result: no (0)

Q: Please let me know the test result on file for CCCCCCCCCCCCCCCCNc1nc(=O)n(C2CC(O)C(COP(=O)(O)OC3CC(n4cc(F)c(=O)[nH]c4=O)OC3CO)O2)cc1F (centres undefined) .
Result: no (0)

Q: What outcome does the record of this test show for CSCCC(NC(=O)OC(C)(C)C)C(=O)NCCNc1ccc(NCCNC(=O)C(CCSC)NC(=O)OC(C)(C)C)c2c1C(=O)c1ccccc1C2=O (centres undefined) ?
Result: no (0)

Q: Identify the outcome logged in this assay for the compound shown: `CCc1cc(CCC(=O)Nc2ccccc2[N+](=O)[O-])nc(S)n1`
Result: no (0)

Q: Per the assay record, what outcome was assigned to `O=C(/C=C/c1ccc(O)cc1)NCCc1ccc(O)cc1` ?
Result: no (0)

---

What GI50 was measured for each of the following?
Tested on: SW-620
Test: NCI tumour cell line growth inhibition, 48 h
Active and inactive are the calls of the source. Cut-off read from the data, not from the text of the source: active = GI50 up to about 1.1 µM and inactive = higher.

Solved cases (3 shown):
COc1ccc(C(=C2C(=O)N(c3ccccc3)C(=O)C2=C(C)C)c2ccc(OC)cc2)cc1
3.19 µM (inactive)
COC(=O)/C=C1\C(=O)N(C(C)=O)c2ccccc21
13.7 µM (inactive)
COc1ccc(C(=O)Sc2c(-c3ccccc3)c(=O)n(-c3ccccc3)c(=S)n2-c2ccccc2)cc1
> 100 µM (inactive)

Please state GI50 for every compound in the list that follows.
1. Cn1c(=O)n2n(c1=O)C1C(=CC2)C2C=CC1n1c(=O)n(C)c(=O)n12 (stereo not given)
2. CSc1nc2c(c(N(C)C)n1)C=Nn1c(nc3ccccc31)S2
3. Cc1nc2ccccc2c(=O)n1NC(=S)Nc1ccccc1
4. c1ccc([P+](c2ccccc2)(c2ccccc2)c2ccc(-c3ccc([P+](c4ccccc4)(c4ccccc4)c4ccccc4)cc3)cc2)cc1

Result:
["> 100 µM (inactive)", "> 100 µM (inactive)", "> 100 µM (inactive)", "30.6 µM (inactive)"]

---

Tested on: SN12C
Assay: NCI tumour cell line growth inhibition, 48 h
Active and inactive are the calls of the source. No stated cut-off is given here; in the data, active = GI50 up to about 1.1 µM and inactive = higher.
Please go through the items and note down their GI50.

// input: 4 molecules below; output: GI50 for each
1. C/C(=N\OCC(O)CNCCSCc1ccccc1)c1ccccc1Cl (configuration not stated)
2. COc1cc(NS(C)(=O)=O)ccc1Nc1ccnc2ccc3[nH]ccc3c12
3. O=C(NCC(C(=O)OCc1ccccc1)C(=O)OCc1ccccc1)OCc1ccccc1
4. CC1O[C@@H]2CCCCC(=O)[C@]2(C)[C@H]1C (some centres not stated)

Result:
1: 18.6 µM (inactive); 2: 14.4 µM (inactive); 3: > 100 µM (inactive); 4: > 100 µM (inactive)

---

Test system: 786-0
Assay: NCI tumour cell line growth inhibition, 48 h
Active and inactive are the calls of the source. Rule as the data show it: active = GI50 up to about 1.1 µM and inactive = higher.
assay_endpoint: GI50

Example entries and their recorded answers appear below.
Cn1c2c(c3ccccc3c1=O)C(=O)c1ccccc1-2
17.9 µM (inactive)
OC/C=C(\I)CCCOCOCc1ccccc1
28.8 µM (inactive)
Nc1cc2ncnn2c(SCC(=O)N/N=C/C(Br)=C\c2ccccc2)n1
15.1 µM (inactive)
O=C(CCn1[nH]c(=O)c(Cl)c(Cl)c1=O)NO
> 100 µM (inactive)

Report GI50 for every entry below.
1. COc1cc(NS(C)(=O)=O)ccc1Nc1ccnc2ccc3[nH]ccc3c12
2. O=c1cc2oc3ccc4ccccc4c3cc-2c(=O)[nH]1

Result:
["14.6 µM (inactive)", "13.8 µM (inactive)"]

---

Tested on: TK-10
Experiment: NCI tumour cell line growth inhibition, 48 h
Active and inactive are the calls of the source. Rule as the data show it: active = GI50 up to about 1.1 µM and inactive = higher.
Exercise: state measured GI50 for each of the compounds provided.

Would you please look over these solved cases?
CCOP(=O)(OCC)OC1CC(n2cc(C)c(=O)n(C)c2=O)OC1CO[Si](C)(C)C(C)(C)C (stereo unspecified)
> 100 µM (inactive)
CC(C)=C[C@@H]1C[C@H](n2cc(C)c(=O)[nH]c2=O)ON1CCO
> 100 µM (inactive)
Cc1ccnc2nc3[nH]c4ccccc4c3cc12
> 100 µM (inactive)
COc1ccc(NC(=O)c2cc(OC)cc(OC)c2)cc1
43.7 µM (inactive)
C=C(C)CC1=C(C(=S)NCCO[Si](C)(C)C(C)(C)C)C(OCC)(OCC)C1=O
16.1 µM (inactive)

For each of the items listed, what is its GI50?
1. Nc1nc(N)c2c(n1)CCC(S(=O)(=O)c1ccc3ccccc3c1)C2 (stereo unspecified)
2. O=C(c1ccc2ccccc2c1)C1(I)S(=O)(=O)OCCOS1(=O)=O
3. COC(=O)n1c(CBr)c(Br)c2ccccc21
4. Cc1ccc(C(=O)Cc2nc3c([nH]c2=O)c(C)nn3-c2ccccc2)c(C)c1
5. Cn1cnc(N)c(N=O)c1=O
6. C=CCCCCOC1C=CC(O)C(CO)O1 (stereo unspecified)

Result:
["4.57 µM (inactive)", "> 100 µM (inactive)", "33.1 µM (inactive)", "> 10 µM (inactive)", "> 10 µM (inactive)", "> 100 µM (inactive)"]
